Numbers sourced from the supplement of paper PMC11451515.

test system: NOMO1; assay: cell viability relative to DMSO control; higher = less cytotoxic; conditions: RPMI 5 mM glucose + 10% FBS; 48 h; 0.00702 µM
Item-by-item account of cell viability
Be sure to follow the number with its unit.

Q: Any idea what its cell viability is? The molecule is `C[C@@]12O[C@@H](C[C@]1(O)CO)n1c3ccccc3c3c4c(c5c6ccccc6n2c5c31)CNC4=O`
Ans: 102%

Q: Any idea what its cell viability is? The molecule is `C[N+]1(C)[C@@H]2C[C@@H](OC(=O)[C@H](CO)c3ccccc3)C[C@H]1[C@@H]1O[C@@H]12.[Br-]`
Ans: 86.6%

Q: Any idea what its cell viability is? The molecule is `CC(C)Oc1cc(Nc2nc(N[C@@H](C)c3ccc(F)cn3)ncc2Cl)n[nH]1`
Ans: 111%

Q: Any idea what its cell viability is? The molecule is `CCc1c(C(=O)C(N)=O)c2c(OCC(=O)O)cccc2n1Cc1ccccc1`
Ans: 91.1%

Q: Any idea what its cell viability is? The molecule is `Cn1c(Nc2ccc(C(F)(F)F)cc2)nc2cc(Oc3ccnc(-c4nc(C(F)(F)F)c[nH]4)c3)ccc21`
Ans: 118%

Q: Any idea what its cell viability is? The molecule is `CC(C)(C)C(=O)OCOP(=O)(COCCn1cnc2c(N)ncnc21)OCOC(=O)C(C)(C)C`
Ans: 98.2%

Q: Any idea what its cell viability is? The molecule is `Cc1cccc(C)c1OCC(=O)N[C@@H](Cc1ccccc1)[C@@H](O)C[C@H](Cc1ccccc1)NC(=O)[C@H](C(C)C)N1CCCNC1=O`
Ans: 97.7%

Q: Any idea what its cell viability is? The molecule is `CC(C)C[C@H](NC(=O)[C@@H](NC(=O)c1cccc(-c2ccccc2)n1)[C@@H](C)O)B(O)O`
Ans: 115%

---

system: SEM cells; assay: cell viability relative to DMSO control; higher = less cytotoxic; settings: HPLM + 10% dialyzed FBS; 48 h; 0.19 µM
In plain terms, low cell viability, meaning strictly below 90%, gives true, and everything else gives false.

>>> cat("C[C@H]1C[C@H]2[C@@H]3CCC4=CC(=O)C=C[C@]4(C)[C@@]3(F)[C@@H](O)C[C@]2(C)[C@@]1(O)C(=O)CO")
"true"
>>> cat("CCN(CC)C(=S)SSC(=S)N(CC)CC")
"true"
>>> cat("CC(=O)NC(CS)C(=O)O (stereo not given)")
"true"
>>> cat("CCCCNc1cc(C(=O)O)cc([S+](N)(=O)[O-])c1Oc1ccccc1")
"false"
>>> cat("Cc1cc(Nc2nc(N[C@@H](C)c3ncc(F)cn3)ncc2Cl)n[nH]1")
"false"

Q: Field: below-cutoff. Rule: recorded cell viability strictly less than 90%. Subject: `Oc1ccc(C2CCN(c3ccnc4ccccc34)CC2)cc1O`
Ans: false

Q: Field: below-cutoff. Rule: recorded cell viability strictly less than 90%. Subject: `O=C(/C=C/c1cccc([S+](=O)([O-])Nc2ccccc2)c1)NO`
Ans: true

Q: Field: below-cutoff. Rule: recorded cell viability strictly less than 90%. Subject: `NC(=O)c1ncn([C@@H]2O[C@H](CO)[C@@H](O)[C@H]2O)n1`
Ans: false

Q: Field: below-cutoff. Rule: recorded cell viability strictly less than 90%. Subject: `O=C(NC[C@H](O)CN1CCc2ccccc2C1)c1cc(NC2COC2)ncn1`
Ans: true

---

tested on: SEM cells; assay: cell viability relative to DMSO control; higher = less cytotoxic; conditions: RPMI 5 mM glucose + 10% FBS; 48 h; 0.00702 µM
observed property: cell viability (%)
Give just the numeric value; % need not be written.

>>> numeric_result("CC(C)(C)C(=O)OCOP(=O)(COCCn1cnc2c(N)ncnc21)OCOC(=O)C(C)(C)C")
108

Q: Any idea what its cell viability is? The compound is `CN1\C(=C(\O)C2=C(C=CS2)[S+]1([O-])=O)C(=O)NC3=CC=CC=N3`
Ans: 112

Q: Any idea what its cell viability is? The compound is `CCN(CC)CCCCNc1nc2cc(Cl)c(Cl)cc2nc1-c1ccc(-c2cccs2)s1`
Ans: 8.03

Q: Any idea what its cell viability is? The compound is CC(C)C[C@H](NC(=O)CNC(=O)c1cc(Cl)ccc1Cl)B1OC(=O)CC(CC(=O)O)(C(=O)O)O1 (some centres undefined)
Ans: 124

---

system: SEM cells; assay: AUC of viability dose-response curve (% viability x log10 dose units); higher = less sensitive; details: HPLM + 10% dialyzed FBS; 48 h
Item-by-item account of AUC of viability dose-response curve
Please reply with the number alone, leaving off any unit.

Example entries begin here.
>>> numeric_result("COc1cc(O)c2c(c1)C1OC1C[C@H](O)[C@H](O)C(=O)/C=C\\C[C@H](C)OC2=O (some centres undefined)")
394
>>> numeric_result("CN(C)NC(=O)CCC(=O)O")
468
>>> numeric_result("O=C1C[C@@H](c2ccc(O)cc2)Oc2cc(O)cc(O)c21")
468
>>> numeric_result("NC(=O)c1ncn([C@@H]2O[C@H](CO)[C@@H](O)[C@H]2O)n1")
471
>>> numeric_result("C[N]1C2=C(SC(=C2)[S+](C)[O-])C\\3=C1C(=O)N(CC4=CC(=CC=C4)N)\\N=C3 (centres undefined)")
426
>>> numeric_result("CC(=O)C\\1=C(/C)C2=CN=C(NC3=CC=C(C=N3)N4CCNCC4)N=C2N(C5CCCC5)C1=O")
357
>>> numeric_result("C[C@H]1[C@H](OC(=O)CCC(=O)O)O[C@@H]2O[C@@]3(C)CC[C@H]4[C@H](C)CC[C@@H]1[C@@]24OO3")
393
>>> numeric_result("CC(C)(C)C(=O)OCOP(=O)(COCCn1cnc2c(N)ncnc21)OCOC(=O)C(C)(C)C")
291

Attention now shifts to the item below.
Q: Any idea what its AUC of viability dose-response curve is? The compound is `CC(=O)N1CCN(c2ccc(OC[C@H]3CO[C@](Cn4ccnc4)(c4ccc(Cl)cc4Cl)O3)cc2)CC1`
Ans: 391

---

tested on: SEM cells; test: cell viability relative to DMSO control; higher = less cytotoxic; conditions: HPLM + 10% dialyzed FBS; 48 h; 5.12 µM
Item-by-item account of cell viability
Be sure to follow the number with its unit.

Example entries begin here.
>>> result("C[C@@H](O)[C@@H]1[C@H]2[C@@H](C)\\C(=C(/N2C1=O)C(=O)OCOC(=O)C(C)(C)C)SC3CN(C3)/C4=N/CCS4")
"107%"
>>> result("O=C1Nc2ccc(Cl)cc2[C@@](C#CC2CC2)(C(F)(F)F)O1")
"88.9%"
>>> result("Cc1cccc(C)c1OCC(=O)N[C@@H](Cc1ccccc1)[C@@H](O)C[C@H](Cc1ccccc1)NC(=O)[C@H](C(C)C)N1CCCNC1=O")
"78.5%"
>>> result("CC(=O)OCC(=O)[C@@]12\\N=C(C)/O[C@@H]1C[C@H]3[C@@H]4CCC/5=C/C(=O)/C=C\\[C@]5(C)[C@H]4[C@@H](O)C[C@]23C")
"92.5%"
>>> result("CC(C)Nc1cc(C(F)(F)F)cc2nc(NC(=O)c3cccnc3)nn12")
"26.5%"
>>> result("N=C(N)NC(=O)c1nc(Cl)c(N)nc1N")
"129%"
>>> result("CCNC(=O)c1cc2c(-c3cc(OCCN4CCCC4)c(Cl)cc3Cl)nc(N)nc2s1")
"32.2%"
>>> result("CC[C@H]1/C=C\\C=C/C[C@@H](C)[C@H](O)[C@@](C)(O)C(=O)[C@@H](C)[C@H](O)[C@@H](C)C(=O)[C@@H](C)[C@H](O)[C@@H](C)/C=C/C(=O)O[C@@H]2[C@H](C)[C@H](CC1)O[C@]1(CC[C@H](C)[C@H](C[C@@H](C)O)O1)[C@H]2C")
"40.9%"
>>> result("CC1=CC=CC=C1CN2C(=O)C/3=C(/CCN(CC4=CC=CC=C4)C3)N\\5CC\\N=C25")
"94%"
>>> result("CO[C@H]1C[C@@H]2CC[C@@H](C)[C@@](O)(O2)C(=O)C(=O)N2CCCC[C@H]2C(=O)O[C@H]([C@H](C)C[C@@H]2CC[C@@H](OC(=O)C(C)(CO)CO)[C@H](OC)C2)CC(=O)[C@H](C)/C=C(\\C)[C@@H](O)[C@@H](OC)C(=O)[C@H](C)C[C@H](C)/C=C/C=C/C=C/1C")
"57.7%"

Q: Please state recorded cell viability (tested on SEM cells) of CC(=O)NC(CS)C(=O)O (stereo not drawn)
Ans: 90%

Q: Please state recorded cell viability (tested on SEM cells) of `OC[C@H]1O[C@H]([C@@H](F)[C@@H]1O)N2\C=C/C(=O)NC2=O`
Ans: 90.8%

Q: Please state recorded cell viability (tested on SEM cells) of `CN1\C(=C(\O)C2=C(C=CS2)[S+]1([O-])=O)C(=O)NC3=CC=CC=N3`
Ans: 106%

Q: Please state recorded cell viability (tested on SEM cells) of `CC1=C(C=CC=C1)N2\C(=N/C3=C(C(=CC=C3)C)C2=O)C[N]4N=CC5=C4N=CN=C5N`
Ans: 125%

Q: Please state recorded cell viability (tested on SEM cells) of `COc1cc2c(Oc3ccc(NC(=O)C4(C(=O)Nc5ccc(F)cc5)CC4)cc3F)ccnc2cc1OCCCN1CCOCC1`
Ans: 19.9%

Q: Please state recorded cell viability (tested on SEM cells) of `CC(=O)O[C@@]1(CC[C@H]2[C@@H]3\C=C(C)/C4=C/C(=O)CC[C@]4(C)[C@H]3CC[C@]12C)C(C)=O`
Ans: 108%

Q: Please state recorded cell viability (tested on SEM cells) of C1CCC(C(CC2CCCCN2)C2CCCCC2)CC1 (stereo not drawn)
Ans: 118%

Q: Please state recorded cell viability (tested on SEM cells) of `CCC[C@H](N[C@@H](C)C(=O)N1[C@H](C(=O)O)C[C@@H]2CCCC[C@@H]21)C(=O)OCC`
Ans: 106%

Q: Please state recorded cell viability (tested on SEM cells) of `OCc1ccc(-c2nn(Cc3ccccc3)c3ccccc23)o1`
Ans: 96.1%

Q: Please state recorded cell viability (tested on SEM cells) of `CC(=O)Nc1ccc([C@H](C)C(=O)Nc2ncc(C(C)C)s2)cc1`
Ans: 61.9%

Q: Please state recorded cell viability (tested on SEM cells) of `OC(=O)\C1=C\N(C2=CC=C(F)C=C2)C3=C(C=C(F)C(=C3)N4CCNCC4)C1=O`
Ans: 86.4%

Q: Please state recorded cell viability (tested on SEM cells) of `C=CC1=C(C(=O)O)N2C(=O)[C@@H](NC(=O)/C(=N\O)c3csc(N)n3)[C@H]2SC1`
Ans: 83.1%

Q: Please state recorded cell viability (tested on SEM cells) of `Oc1ccc(/C=C/c2cc(O)cc(O)c2)cc1`
Ans: 118%
